# IC50 per record follows
Test system: MCF-7 (ER+) breast cancer cell line
Test: Growth inhibition assay, MTT, MCF-7 breast cancer cells
Type: cell-based, human
Settings: Homo sapiens, MCF7, 192 h; MTT assay, eight days; average of at least two experiments; read-out: GROWTH INHIBITION (IC50) MCF-7 (ER+)

[[record]]
compound = "COc1cc(C2CC(=O)c3ccc4ccccc4c3O2)cc(OC)c1OC (stereo not shown)"
reported = "4.65 µM"

[[record]]
compound = "COc1cc(C2CC(O)c3ccc4ccccc4c3O2)cc(OC)c1OC (stereo not shown)"
reported = "1.41 µM"

[[record]]
compound = "COc1cc(/C=C/C(=O)c2ccc3ccccc3c2O)cc(OC)c1OC"
reported = "> 50 µM"

[[record]]
compound = "OC1CC(c2cc(OCc3ccccc3)c(OCc3ccccc3)c(OCc3ccccc3)c2)Oc2cc(OCc3ccccc3)cc(OCc3ccccc3)c21 (stereo not shown)"
reported = "> 100 µM"

[[record]]
compound = "O=C(/C=C/c1cc(OCc2ccccc2)c(OCc2ccccc2)c(OCc2ccccc2)c1)c1ccc2ccccc2c1O"
reported = "5.08 µM"


Using the record for O=C1CC(c2cc(OCc3ccccc3)c(OCc3ccccc3)c(OCc3ccccc3)c2)Oc2c1ccc1ccccc21 (stereo not shown) , report its IC50.
7.32 µM

What would you report for COc1ccc(C2CC(O)c3c(OC)cc(OC)cc3O2)cc1 (stereo not shown) ?
> 50 µM

Value source: patent US7638554B2
